Each recorded value in this set is attributed to the supplement of paper PMC10567573.

B1: PDZK1 (parent)
chain: RETASLKLLPHQPRIVEMKKGSNG

Variants of: B1
Assay: protein stability index of a GFP-peptide fusion (GPS, HEK-293T) (PSI 1-6); higher = more stable;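 further: lentivirally expressed fusions sorted by FACS into six bins by GFP to DsRed ratio, PSI derived from sequencing read proportions per bin multiplied by bin number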
Settings: c terminus: a fixed tail appended
MEASURE: protein stability index
Note: the reply should be a number with no unit written.

Check out these entries, answers already filled in.
sequence_chain="RETASLKLRPHQPRIVEMKKGSNG [L9R]" measure="protein stability index" readout_number=3.63
sequence_chain="RETASLKLLPVQPRIVEMKKGSNG [H11V]" measure="protein stability index" readout_number=2.59
sequence_chain="REVASLKLLPHQPRIVEMKKGSNG [T3V]" measure="protein stability index" readout_number=3.25
sequence_chain="RETASLKLLPHDPRIVEMKKGSNG [Q12D]" measure="protein stability index" readout_number=3.3
sequence_chain="RETASLKLLPHIPRIVEMKKGSNG [Q12I]" measure="protein stability index" readout_number=2.85
sequence_chain="RETASLKLLPHQPRIVEMKKGCNG [S22C]" measure="protein stability index" readout_number=3.25
sequence_chain="RETASLKLLPHQPRIVERKKGSNG [M18R]" measure="protein stability index" readout_number=4.93
sequence_chain="RETASLKLLPHQPKIVEMKKGSNG [R14K]" measure="protein stability index" readout_number=3.38

*Q* What value of measured protein stability index is listed for RETASLKLLPHQPTIVEMKKGSNG [R14T] ?
*A* 4.22

*Q* What value of measured protein stability index is listed for RETASLKLYPHQPRIVEMKKGSNG [L9Y] ?
*A* 3

*Q* Using the record for REWASLKLLPHQPRIVEMKKGSNG [T3W] , report its protein stability index.
*A* 2.58

*Q* Looking for the measured protein stability index of RETASLMLLPHQPRIVEMKKGSNG [K7M] , can you help?
*A* 3.9

*Q* May I ask what protein stability index has been recorded for RETASLKLLPHQCRIVEMKKGSNG [P13C] ?
*A* 2.35

*Q* What value of protein stability index has been recorded for this entry: RETASLCLLPHQPRIVEMKKGSNG [K7C]
*A* 3.89

*Q* For RETASLKLLPHKPRIVEMKKGSNG [Q12K] , what is its reported protein stability index?
*A* 3.66
